System: monoclonal antibody XIIIE82 /H8
experimental-protocol: Binding of radioactive Ca2+ channel blockers to monoclonal antibody XIIIE82 /H8-Sepharose 6MB beads
Parameters: species or system mouse
experimental-conditions: [3H]calcium channel blocker 1.0 nM
Protocol: Various radioactive Ca^2+ channel blockers at a 1.0 nM concentration were tested for their ability to bind to monoclonal antibody XIIIE82 /H8-Sepharose 6MB beads.
Reported CPM Bound is given for each of the following compounds.
reported-property: CPM Bound (CPM)

| compound | reported-property | assay-value |
| --- | --- | --- |
| COc1ccc(CCN(C)CCCC(C#N)(c2ccc(OC)c(OC)c2)C(C)C)cc1OC (stereo not drawn) [[^3 H]Verapamil] | CPM Bound | 234 |
| CCOC(=O)C1=C(C)NC(C)=C(C(=O)OC)C1c1cccc([N+](=O)[O-])c1 (stereo not drawn) [[^3 H]Nitrendipine] | CPM Bound | 59103 |
| COCCOC(=O)C1=C(C)NC(C)=C(C(=O)OC(C)C)C1c1cccc([N+](=O)[O-])c1 (stereo not drawn) [[^3 H]Nimodipine] | CPM Bound | 57439 |
| COC(=O)C1=C(C)NC(C)=C(C(=O)OC(C)C)C1c1cccc2nonc12 (single isomer, unassigned) [[^3 H]PN200-110] | CPM Bound | 9419 |
| COC(=O)C1=C(C)NC(C)=C(C(=O)OC)C1c1ccccc1N=C=S [[^3 H]Nifedipine-Analog] | CPM Bound | 26000 |
| COc1ccc([C@@H]2Sc3ccccc3N(CCN(C)C)C(=O)[C@@H]2OC(C)=O)cc1 [[^3 H]Diltiazem] | CPM Bound | 225 |
